# Protocol Notes: resazurin metabolic signal in A549 cells – cell-based, resazurin fluorescence, 24 h, PK04 Diversity Set, profiling panel (AID 1171); also: test concentration not given here
# Measurement Context: A549 viability, higher = more signal, called active from +8 up or from −8 down
Reported z-score values follow for various compounds
Give the figure by itself; no unit, no explanation.

| Compound | Readout Kind | Experimental Result |
| --- | --- | --- |
| CCOC(=O)C1=CC[C@@H](c2ccccc2F)N(S(=O)(=O)c2ccc(C)cc2)[C@H]1c1ccccc1 | z-score | 2.12 |
| C=C[C@H](C)[C@H](OC(=O)Nc1ccc(SC)cc1)c1ccc(OCCO)cc1 | z-score | -1.48 |
| COc1cc2c(cc1O)C(c1ccc(CN3CCCC3)cc1)N(Cc1cc3c(cc1Br)OCO3)CC2 (centres undefined) | z-score | 0.694 |
| CC[C@@H]1C=C(C(=O)O)[C@H](c2ccc(C#N)cc2)N1S(=O)(=O)c1ccc(C)cc1 | z-score | -0.858 |
| CCCC[C@@H](O)C1=C(COC)C[C@H]2C(=O)N(C)C(=O)[C@H]2[C@H]1CO | z-score | 0.368 |

Kindly consider the entry below.
Ask: For the compound C#CCN([C@@H](Cc1ccccc1)C(=O)OC)[C@@H](/C=C/C1CC1)[C@H](O)Cc1ccccc1 , report z-score.
Reply: 2.25

====

# Protocol Notes: probe aWnt5a binding to arrayed compounds – biochemical, biotinylated probe, 635/667 nm fluorescence, primary screen (AID 1113);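 also: score merges 667 nm fluorescence intensity with signal-to-noise per printed feature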
# Measurement Context: small-molecule microarray, higher = more signal
Readout Kind: composite z-score
Kindly provide the number alone.

| Molecule | composite z-score |
| --- | --- |
| CC(C)N1C(=O)C[C@@](C(=O)NC2CC2)(c2ccc([N+](=O)[O-])cc2)[C@H]1c1ccc(CO)cc1 | -0.0934 |
| [N-]=[N+]=Nc1ccccc1[C@H]1OC(c2ccc(OCCCO)cc2)=N[C@@]1(Cc1ccccc1)C(=O)NCCN1CCOCC1 | 0.248 |
| O=C1OCCC=C[C@H]2OC34C=CCN(Cn5nnc6ccccc65)C(=O)[C@H]3N(CCCO)C(=O)[C@@H]4C12 (stereo partly drawn) | -0.112 |
| CC1CC/C=C\[C@H]2OC34C=CCN(c5ccc6ccccc6c5)C(=O)[C@H]3N(CCCO)C(=O)[C@@H]4C2C(=O)O1 (stereo partly drawn) | -0.287 |
| C=CC[C@@H](OC(=O)Nc1ccc(OC)cc1)c1ccc(O)c(F)c1 | -0.184 |

Ask: Give the reported composite z-score for this molecule. COc1cc2c(cc1O)C(C1CC1)N(Cc1cccc(OC(F)(F)F)c1)CC2 (stereo not drawn)
Reply: -0.062

Ask: Supply composite z-score value. Item: CCOC(=O)C=Cc1cccc(C)c1O
Reply: -0.1

Ask: Answer with the recorded composite z-score of COCCCNC(=O)[C@@]1(Sc2ccc(C)cc2)CC(=O)N(C2Cc3ccccc3C2)[C@@H]1c1ccc(CO)cc1 only.
Reply: -0.227

Ask: Specify measured composite z-score for CC1CC/C=C\[C@H]2OC34C=CCN(Cc5ccccc5)C(=O)[C@H]3N(C(CO)C(C)C)C(=O)[C@@H]4C2C(=O)O1 (stereo partly drawn) .
Reply: -0.176

Ask: Using known records, supply composite z-score for CN(C)c1ccc(C(O)C2C=CC3C(=O)NC(=O)C3N2Nc2ccccn2)cc1 (stereo not drawn)
Reply: -0.13

Ask: Find the measured composite z-score of CO[C@H]1O[C@H](CO)[C@@H](OC(=O)Nc2ccccc2)[C@H](OC(=O)c2cc3ccccc3[nH]2)[C@H]1OC(=O)c1cc2ccccc2[nH]1 and report it.
Reply: 0.0642

Ask: Dear colleague, please send me the reported composite z-score for [N-]=[N+]=Nc1ccccc1C[C@]1(C(=O)NCCN2CCOCC2)COC(c2ccc(OCCCO)cc2)=N1 when you can.
Reply: -0.349

Ask: Find the measured composite z-score of C=CCC(OC(C)=O)[C@@H]1[C@@H](N(Cc2ccc(-c3ccccc3)cc2)C(=O)c2ccc(-c3ccccc3)cc2)c2cc(OCCCO)ccc2N1C(=O)c1ccc2ccccc2c1 (stereo partly drawn) and report it.
Reply: -0.11

====

# Measured Target: Calmodulin-1 (Homo sapiens)
# Protocol Notes: small molecules binding calmodulin-1 with EGTA – biochemical, small-molecule microarray, Cy5-labelled CALM1, profiling panel (AID 1111);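 also: labelled calmodulin applied in Tris saline Tween buffer holding calcium plus EGTA and DTT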
# Measurement Context: Cy5-CALM1 binding fluorescence, higher = more signal
Let's look at some compounds and their measured composite z-score.
Simply state the number, no unit and no words.

Worked cases, composite z-score given:
| Compound | composite z-score |
| --- | --- |
| C=C(COC)/C(=C/C[C@H](OC(=O)c1ccncc1)c1ccc(CO)o1)c1cnc2ccccc2c1 | -0.0747 |
| C=CCN1C(=O)[C@]2(CCC(=O)OC(C)(C)C)N=C(c3ccc(OCCCO)cc3)O[C@@H]2c2ccccc21 | 1.23 |
| CCC1=C2CN(Cc3ccccc3)[C@@H](C(=O)Cc3ccccc3)C2C=CCC1 (some centres not stated) | -0.0133 |
| Cc1ccc(S[C@]2(C(=O)NCC(F)(F)F)CC(=O)N(Cc3cc(C(F)(F)F)cc(C(F)(F)F)c3)[C@@H]2c2ccc(CO)cc2)cc1 | -0.392 |

Ask: Given the compound CCCN1C(=O)[C@]2(Cc3ccccc31)N=C(c1ccc(OCCCO)cc1)O[C@@H]2c1ccccc1 , write its reported composite z-score.
Reply: 1.98

Ask: Report composite z-score for CS(=O)(=O)CCOC(=O)C1=CC(c2ccc(CO)cc2)=CC(C2CC2)N(Cc2sc3ccccc3c2Cl)C=C1C(=O)OCCS(C)(=O)=O (configuration not stated)
Reply: 0.0782

Ask: Output composite z-score of C=CC[C@@H](OC(=O)Nc1ccc(SC)cc1)c1ccc(O)c(F)c1
Reply: -0.818

====

# Protocol Notes: S6 kinase pathway phospho-S6 level changes – cell-based, A549, cytoblot, luminescence, serum-stimulated, primary screen (AID 1158);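 also: serum-stimulated A549 lung adenocarcinoma cells; signal is phosphorylated S6 detected by cytoblot immunostaining with HRP secondary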
# Measurement Context: 5 h, higher = more signal
Readout Kind: z-score
Lab note: record just the number, no unit beside it.

Some entries whose results are on file:
| Molecule | z-score |
| --- | --- |
| COc1ccc([Si](C)(C)[C@@H]2[C@@H](CC(=O)N3Cc4ccccc4C[C@H]3CO)O[C@]3(C(=O)N(Cc4ccc(N5C(=O)c6cccc7cccc5c67)cc4)c4ccccc43)[C@H]2C)cc1 | -0.297 |
| Cc1ccc(C(C)CC(O)C2C=CC3C(=O)N(c4ccccc4)C(=O)C3N2Nc2ccccc2)o1 (stereo not drawn) | 2.07 |
| O=C1OCCC/C=C\[C@H]2OC34C=CCN(c5ccc6ccccc6c5)C(=O)[C@H]3N(CCO)C(=O)[C@@H]4C12 (stereo partly drawn) | 0.235 |
| COC(=O)[C@@]1(Cc2ccc(F)cc2)[C@H]2c3cc(C(=O)N4CCCC4)n(Cc4ccc(C)c(F)c4F)c3C[C@H]2CN1C(=O)c1ccccc1 | -0.389 |

Ask: Give z-score for the following molecule: [N-]=[N+]=NCc1ccccc1[C@@H]1OC(c2ccc(OCCCO)cc2)=N[C@]1(CCS(=O)(=O)c1ccccc1)C(=O)O
Reply: -0.0381

Ask: Answer with the recorded z-score of CCCCN1CC=CC23O[C@@H]4/C=C\CCC(C)OC(=O)C4[C@H]2C(=O)N(CCCO)[C@@H]3C1=O (stereo partly drawn) only.
Reply: -0.118

Ask: Write down z-score measured for item O=C(NCCN1CCOCC1)[C@@H]1c2ccccc2C(=O)N(C2Cc3ccccc3C2)[C@H]1c1ccc(CO)cc1
Reply: 1.31

Ask: Check the records and state z-score for C=CCOC(=O)[C@@]1(Cc2ccccc2)C[C@H]2CO[C@H](c3ccc(OC)cc3)N2C1=O
Reply: -0.673

====

# Protocol Notes: compound effects on multiple myeloma cell viability – MM1S, calcein-AM fluorescence, 48 h, basal, profiling panel (AID 1165);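 also: viability of MM1S multiple myeloma cells under basal unstimulated conditions; test concentration not given here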
# Measurement Context: higher = more signal
Entries and their measured z-score follow.

Example cases with answers are listed next.
| Compound | Experimental Result |
| --- | --- |
| Cc1ccc(S[C@]2(C(=O)NCc3ccccc3)CC(=O)N(C3CCCCC3)[C@@H]2c2ccc(CO)cc2I)cc1 | -1.93 |
| COCCOC(=O)N1C(=O)[C@@]2(c3cc(C#CC4=CCCCC4)ccc31)[C@H](c1ccccc1OCCO)N1[C@H](c3ccccc3)[C@H](c3ccccc3)OC(=O)[C@H]1[C@@H]2C(=O)NC[C@H](O)c1ccccc1 | -3.08 |
| C=CCNC(=O)[C@@H]1[C@H]2C(=O)O[C@H](c3ccccc3)[C@H](c3ccccc3)N2[C@H](c2ccc(OCCO)cc2)[C@@]12C(=O)N(C(=O)OCCOC)c1ccc(C#Cc3ccc(OC)cc3)cc12 | -0.845 |

Ask: Read off the recorded z-score for CCOC(=O)C1=C[C@@H](c2ccccc2)N(S(=O)(=O)c2ccc(C)cc2)[C@H]1c1ccc(OC)cc1
Reply: -0.62

Ask: // Input: COC(=O)C1=CC(CCCO)=CC(c2cccs2)N(C)C=C1C(=O)OC (stereo unspecified) . Output its z-score only.
Reply: 0.347

Ask: For the compound CO[C@H]1O[C@H](CO)[C@@H](OC(=O)Nc2ccc(Br)cc2)[C@@H]2OC(=O)[C@@H](Cc3ccccc3)C/C=C/C[C@H](Cc3ccccc3)C(=O)O[C@@H]12 , give its reported z-score.
Reply: -1.41

Ask: // fetch z-score given entry COCCCNC(=O)[C@@H]1c2ccccc2C(=O)N(C(C)C)[C@H]1c1ccc(CO)cc1
Reply: -0.288

Ask: Provide z-score value for the following compound: COc1ccc(C#Cc2ccc3c(c2)[C@]2(C(=O)N3)[C@H](c3ccc(O)cc3)N3[C@H](c4ccccc4)[C@H](c4ccccc4)OC(=O)[C@H]3[C@@H]2C(=O)Nc2nc3ccccc3s2)cc1
Reply: -1.4

Ask: Supply measured z-score of O=C(NCCN1CCOCC1)[C@@H]1c2ccccc2C(=O)N(Cc2ccccc2Cl)[C@H]1c1ccc(CO)cc1 in your reply.
Reply: -0.142

Ask: Fill in z-score for record CC1CC/C=C\[C@H]2OC34C=CCN(c5ccc6ccccc6c5)C(=O)[C@H]3N(CCCO)C(=O)[C@@H]4C2C(=O)O1 (stereo partly specified)
Reply: -0.144

Ask: Give the measured z-score for Oc1ccc2cc[n+](Cc3cc4c(cc3Br)OCO4)cc2c1
Reply: 0.677

Ask: State its z-score for this compound: CC(C)C(O)C1C=CC2C(=O)N(c3ccccc3)C(=O)C2N1Nc1ccccc1 (stereo unspecified)
Reply: -0.528

Ask: Note z-score for the compound shown: CC[C@@H]1O[Si](C(C)C)(C(C)C)c2c1cc(-c1cc(C)c(OC)c(C)c1)nc2-c1ccc(Oc2ccccc2)cc1
Reply: 0.287

Ask: Supply measured z-score of [N-]=[N+]=Nc1ccccc1C[C@@]1(C(=O)NCCN2CCOCC2)N=C(c2ccc(OCCCO)cc2)O[C@@H]1c1ccccc1N=[N+]=[N-] in your reply.
Reply: -2.94

Ask: Entry CC(C)C(CO)N1C(=O)[C@@H]2[C@H]3C(=O)OCC=C[C@H]3OC23C=CCN(c2ccc(Cl)cc2)C(=O)[C@@H]13 (stereo partly specified) needs its z-score filled in; supply it.
Reply: 1.04

Ask: Assign z-score to the following record: CCC1=C2CN(Cc3ccccc3)[C@@H](C(=O)Cc3ccccc3)C2C=CCC1 (stereo partly specified)
Reply: 0.435
